# Test system: HIV in the HTLV-1 transformed cell line MT-4
# assay-details: organism not typed
# Type: cell-based
# protocol-conditions: MT4, 96 h, MT-4 cells; luciferase/cell titer glo readout after 96 hours; 10 point dose response
pIC50: −log10 of the molar value.
Class y: pIC50 at least 8. Class n: pIC50 below 8.

Cc1ccc(-c2c(C)c3c(c(C)c2[C@H](OC(C)(C)C)C(=O)O)CN(C(=O)c2cccc4c2ccn4C)C3)cc1: n
COc1ccc(C)c(C(=O)N2Cc3c(C)c(-c4cc(F)c5c(c4C)CCCO5)c([C@H](OC(C)(C)C)C(=O)O)c(C)c3C2)c1 (atropisomer, axis not shown; (M)): y

Does Cc1ccc(-c2c(C)c3c(c(C)c2[C@H](OC(C)(C)C)C(=O)O)CN(C(=O)NC2CCC2)C3)cc1 have a reported pIC50 of at least 8?
n

Does Cc1ccc(-c2c(C)c3c(c(C)c2[C@H](OC(C)(C)C)C(=O)O)CN(C(=O)c2ccc(F)c(F)c2)C3)cc1 have a reported pIC50 of at least 8?
y

Does Cc1ccc(-c2c(C)c3c(c(C)c2C(OC(C)(C)C)C(=O)O)CN(S(=O)(=O)c2cccc4ccccc24)C3)cc1 (centres unmarked) have a reported pIC50 of at least 8?
n

Does Cc1ccc(-c2c(C)c3c(c(C)c2[C@H](OC(C)(C)C)C(=O)O)CN(C(=O)NCc2ncccn2)C3)cc1 have a reported pIC50 of at least 8?
n

Does Cc1ccc(-c2c(C)c3c(c(C)c2[C@H](OC(C)(C)C)C(=O)O)CN(Cc2cccc(F)c2)C3)cc1 have a reported pIC50 of at least 8?
n

Does Cc1ccc(-c2c(C)c3c(c(C)c2[C@H](OC(C)(C)C)C(=O)O)CN(Cc2ccncc2)C3)cc1 have a reported pIC50 of at least 8?
n

Does Cc1ccc(-c2c(C)c3c(c(C)c2[C@H](OC(C)(C)C)C(=O)O)CN(C(=O)NCC(C)(C)C)C3)cc1 have a reported pIC50 of at least 8?
n

Does Cc1ccc(-c2c(C)c3c(c(C)c2[C@H](OC(C)(C)C)C(=O)O)CN(C(=O)N2CCC2)C3)cc1 have a reported pIC50 of at least 8?
n

###

# System: HIV in the HTLV-1 transformed cell line MT-4
# assay-details: organism not typed
# Format: cell-based
# protocol-conditions: MT4, 96 h, MT-4 cells; luciferase/cell titer glo readout after 96 hours; 10 point dose response
measure-name: log10(IC50) (log10 of the value in nM)
Reminder: these figures are log10 of reported IC50, in nM before transformation.

Completed entries (count: 3):
Cc1ccc(F)cc1C(=O)N1Cc2c(C)c(-c3cc(F)c4c(c3C)CCCO4)c([C@H](OC(C)(C)C)C(=O)O)c(C)c2C1 (atropisomer, axis not shown; (M)): 0.30
Cc1c(-c2c(C)c3c(c(C)c2[C@H](OC(C)(C)C)C(=O)O)CN(C(=O)c2ccc(F)c(F)c2)C3)cc(F)c2c1CCCO2 (atropisomer, axis not shown; (M)): 0.30
Cc1ccc(-c2c(C)c3c(c(C)c2[C@H](OC(C)(C)C)C(=O)O)CN(C(=O)N2CCOCC2)C3)cc1: 1.64

Sample Cc1ccc(-c2c(C)c3c(c(C)c2[C@H](OC(C)(C)C)C(=O)O)CN(C(=O)c2cc(Cl)cc(Cl)c2)C3)cc1 — what was its log10(IC50)?
0.90

Sample Cc1ccc(-c2c(C)c3c(c(C)c2[C@H](OC(C)(C)C)C(=O)O)CN(C(=O)N2CC4CCCC4C2)C3)cc1 (stereo partly drawn) — what was its log10(IC50)?
1.15
